biological target: GST-Bcl-2 (Homo sapiens (Human)); assay: Time Resolved-Fluorescence Resonance Energy Transfer (TR-FRET) Bcl-2 binding assay; settings: GST-Bcl-2 1 nM, F-Bak peptide probe 100 nM, Tb-anti-GST antibody 1 nM; Ki by Wang's equation
Sequence (P10415 whole entry): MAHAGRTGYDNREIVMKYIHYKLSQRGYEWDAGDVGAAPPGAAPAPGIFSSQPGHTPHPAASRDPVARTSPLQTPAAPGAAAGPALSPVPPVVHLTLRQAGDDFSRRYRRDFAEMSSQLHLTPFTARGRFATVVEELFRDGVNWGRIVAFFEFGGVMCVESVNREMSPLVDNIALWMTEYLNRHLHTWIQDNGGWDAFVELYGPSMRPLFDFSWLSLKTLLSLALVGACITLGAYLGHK
// NB: equality with 0.2 nM counts as false; only Ki strictly below is true

Compound	Assayed Target	Label Class
CC1(C)CCC(CN2CCN(c3ccc(C(=O)NS(=O)(=O)c4ccc(NCC5CCOCC5)c([N+](=O)[O-])c4)c(Oc4cccc(Cl)c4)c3)CC2)=C(c2ccc(Cl)cc2)C1 [Example 246]	GST-Bcl-2 (Homo sapiens (Human))	true
COc1cccc(Oc2cc(N3CCN(CC4=C(c5ccc(Cl)cc5)CC(C)(C)CC4)CC3)ccc2C(=O)NS(=O)(=O)c2ccc(NC3CCN(C)CC3)c([N+](=O)[O-])c2)c1 [Example 166]	GST-Bcl-2 (Homo sapiens (Human))	true
CN1CCC(Nc2ccc(C(=O)NS(=O)(=O)c3ccc(N4CCN(Cc5ccccc5-c5ccc(Cl)cc5)CC4)cc3Oc3cc(Cl)cc(Cl)c3)cc2[N+](=O)[O-])CC1 [Example 111]	GST-Bcl-2 (Homo sapiens (Human))	false
CN1CCC(Nc2ccc(S(=O)(=O)NC(=O)c3ccc(N4CCN(CC5=C(c6ccc(Cl)cc6)CC(C)(C)CC5)CC4)cc3OCc3csc(NC(=O)OC(C)(C)C)n3)cc2[N+](=O)[O-])CC1 [Example 222]	GST-Bcl-2 (Homo sapiens (Human))	false
CN1CCC(Nc2ccc(S(=O)(=O)NC(=O)c3ccc(N4CCN(CC5=C(c6ccc(Cl)cc6)CC(C)(C)CC5)CC4)cc3Oc3cnc(N)c(Cl)c3)cc2S(=O)(=O)C(F)(F)F)CC1 [Example 354]	GST-Bcl-2 (Homo sapiens (Human))	true
CC1(C)CCC(CN2CCN(c3ccc(C(=O)NS(=O)(=O)c4ccc(NCC5CCOCC5)c([N+](=O)[O-])c4)c(Oc4ccc(NC5CC5)nc4)c3)CC2)=C(c2ccc(Cl)cc2)C1 [Example 374]	GST-Bcl-2 (Homo sapiens (Human))	false
CC1(C)CCC(CN2CCN(c3ccc(C(=O)NS(=O)(=O)c4ccc(NCC5CCOCC5)c([N+](=O)[O-])c4)c(Oc4cncc(N)c4)c3)CC2)=C(c2ccc(Cl)cc2)C1 [Example 279]	GST-Bcl-2 (Homo sapiens (Human))	false
CC1(C)CCC(CN2CCN(c3ccc(C(=O)NS(=O)(=O)c4ccc(NC5CCN(C6CCOCC6)CC5)c([N+](=O)[O-])c4)c(Oc4cccc(Cl)c4)c3)CC2)=C(c2ccc(Cl)cc2)C1 [Example 127]	GST-Bcl-2 (Homo sapiens (Human))	true
CN1CCC(Nc2ccc(S(=O)(=O)NC(=O)c3ccc(N4CCN(CC5=C(c6ccc(Cl)cc6)CC(C)(C)CC5)CC4)cc3Oc3ccccc3Cl)cc2S(=O)(=O)C(F)(F)F)CC1 [Example 59]	GST-Bcl-2 (Homo sapiens (Human))	true
CC1(C)CCC(CN2CCN(c3ccc(C(=O)NS(=O)(=O)c4ccc(NCC5CCOCC5)c([N+](=O)[O-])c4)c(Oc4cc(Br)nc(NC(=O)OC(C)(C)C)c4)c3)CC2)=C(c2ccc(Cl)cc2)C1 [Example 372]	GST-Bcl-2 (Homo sapiens (Human))	false

----------
biological target: GST-Bcl-2 (Homo sapiens (Human)); assay: Time Resolved-Fluorescence Resonance Energy Transfer (TR-FRET) Bcl-2 binding assay; details: GST-Bcl-2 1 nM, F-Bak peptide probe 100 nM, Tb-anti-GST antibody 1 nM; Ki by Wang's equation
pKi: −log10 of the molar value.

Smiles Str	Assayed Target	pKi
O=C(NS(=O)(=O)c1ccc(NCC2CCOCC2)c([N+](=O)[O-])c1)c1ccc(N2CCN(Cc3ccccc3-c3ccc(Cl)cc3)CC2)cc1Oc1cccc(N2CCOCC2)c1	GST-Bcl-2 (Homo sapiens (Human))	8.21
CN(C)Cc1ccc(Oc2cc(N3CCN(Cc4ccccc4-c4ccc(Cl)cc4)CC3)ccc2C(=O)NS(=O)(=O)c2ccc(NCC3CCOCC3)c([N+](=O)[O-])c2)cc1	GST-Bcl-2 (Homo sapiens (Human))	7.11
CN1CCC(Nc2ccc(S(=O)(=O)NC(=O)c3ccc(N4CCN(CC5=C(c6ccc(Cl)cc6)CC(C)(C)CC5)CC4)cc3Oc3ccc(F)cc3)cc2[N+](=O)[O-])CC1	GST-Bcl-2 (Homo sapiens (Human))	9.82
CC(C)N1CCC(Nc2ccc(S(=O)(=O)NC(=O)c3ccc(N4CCN(CC5=C(c6ccc(Cl)cc6)CC(C)(C)CC5)CC4)cc3Oc3cccc(Cl)c3)cc2[N+](=O)[O-])CC1	GST-Bcl-2 (Homo sapiens (Human))	10.34
O=C(NS(=O)(=O)c1ccc(NCC2CCOCC2)c([N+](=O)[O-])c1)c1ccc(N2CCN(Cc3ccccc3-c3ccc(Cl)cc3)CC2)cc1Oc1ccc(OCCN2CCOCC2)cc1	GST-Bcl-2 (Homo sapiens (Human))	6.25
